# tested system: T1, K280-ac protein fragment (human)
# T1 construct: also called mAC
# T1 peptide: VQIINK(Ac)KLDLSN
# protocol text: ELISA on K280-ac coated at 250 ng/well, HRP anti-human IgG
# Experimental: In addition, binding of the K280-ac protein fragment prepared in Preparation Example 1 with the ADEL-Y01h (v01 to v12) antibodies prepared in Preparation Example 2 was measured by ELISA. First, plates were treated with the K280-ac protein fragment at 250 ng/well and reaction was allowed to proceed at 4° C. overnight. […]
Ends that are not written are not given here.
quantity measured: Absorbance at 450nm at 0.12ug/well
Answer field: number only, no words.

INSERT INTO assay_data (binder, quantity_measured, experimental_result) VALUES
  ('ADEL-Y01h v10 antibody (antibody, V domains shown, Humanized antibody; It was detected with anti-human IgG; also called Y01h01v10) VH: EVQLVESGGGLVQPGRSLRLSCTVSGDSITSGYWNWFRQAPGKGLEYVGYIRYSGRTYYNPSLKSRFTISRDTSKNIAYLQMNSLKTEDTAVYYCASVYFTYWGQGTLVTVSS VL: DVVMTQSPLSLPVTLGQPASISCKSSQSLLDSDGKTYLNWFQQRPGQSPKRLISLVSKLDSGVPDRFSGSGSGTDFTLKISRVEAEDVGVYYCWQGSHFPYTFGQGTKLEIK', 'Absorbance at 450nm at 0.12ug/well', 1.65);

Using the record for ADEL-Y01h v06 antibody (antibody, V domains shown, Humanized antibody; It was detected with anti-human IgG; also called Y01h01v06) VH: EVQLQQSGPGLVKPSQTLSLTCAVSGDSITSGYWNWIRQSPSRGLEWLGYIRYSGRTYYNPSLKSRITINRDTSKNQFSLQLNSVTPEDTAVYYCASVYFTYWGQGTLVTVSS VL: EVVLTQSPGTLSLSPGERATLSCKSSQSLLDSDGKTYLNWYQQKPGQSPKRLISLVSKLDSGIPDRFSGSGSGTDFTLTISRLEPEDFAVYYCWQGSHFPYTFGQGTKLEIK , report its Absorbance at 450nm at 0.12ug/well.
0.657
